The reported measurements were obtained from patent EP4610269A1.

assayedSystem: human uPAR (uPAR-Fc) (Homo sapiens, UniProt Q03405)
Construct: comprising amino acids Leu23-Arg303 according to UniProt entry Q03405.1; purchased R&D Systems 10378-UK-100
Sequence (Q03405 23-303): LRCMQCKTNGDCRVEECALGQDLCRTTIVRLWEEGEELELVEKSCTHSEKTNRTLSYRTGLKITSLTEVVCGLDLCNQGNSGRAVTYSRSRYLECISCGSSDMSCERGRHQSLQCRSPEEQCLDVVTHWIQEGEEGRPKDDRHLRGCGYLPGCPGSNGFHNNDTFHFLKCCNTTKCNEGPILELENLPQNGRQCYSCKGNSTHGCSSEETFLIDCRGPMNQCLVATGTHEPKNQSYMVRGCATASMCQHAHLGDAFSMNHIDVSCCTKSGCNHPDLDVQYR
procedureSummary: Surface plasmon resonance (SPR) assay, single cycle kinetics
Type: binding
studyConditions: pKD category for uPAR SPR activity assay; uPAR-Fc on Protein A-Chip, 25°C; read-out: pKD CAT (converted)
Where a SMILES comes first, the peptide text is derived from it. Bridges are numbered along the chain shown (N, C = ends). [ ]: non-standard residue; d: D form. The star is where a group is joined. DOTA = O=C(O)CN1CCN(CC(=O)O)CCN(CC(=O)*)CCN(CC(=O)O)CC1; Pro(cis-4-F) = O=C(O)[C@@H]1C[C@H](F)CN1; Hyp = O=C(O)[C@@H]1C[C@@H](O)CN1; Butoxycarbonyl = CCCCOC(=O)*; Nva = CCC[C@H](N)C(=O)O; Deg = CCC(N)(CC)C(=O)O; Pentanoyl = CCCCC(=O)*; βAla = NCCC(=O)O
Assign Kd to each entry below.

Problem: Tell me the measured Kd of CCCCC(=O)N[C@H]1CSSC[C@@H](C(N)=O)NC(=O)[C@H](CCC)NC(=O)C(CC)(CC)NC(=O)[C@@H]2C[C@@H](O)CN2C(=O)[C@@H]2CCCN2C(=O)[C@H](Cc2ccccc2)NC(=O)[C@H](Cc2ccc(O)cc2)NC(=O)[C@H](CCC(N)=O)NC(=O)[C@H](CCCNC(=N)N)NC1=O [UPAR-179] (Pentanoyl-CRQYFP[Hyp][Deg][Nva]C-NH2; disulfide 1-10) , please.
Result: > 100 nM

Problem: Tell me the measured Kd of CCCCOC(=O)N[C@H]1CSSC[C@@H](C(=O)NCCC(=O)O)NC(=O)[C@H](CCC)NC(=O)[C@H]([C@@H](C)CC)NC(=O)[C@@H]2C[C@@H](O)CN2C(=O)[C@@H]2C[C@H](F)CN2C(=O)[C@H](Cc2ccccc2)NC(=O)[C@H](Cc2ccc(O)cc2)NC(=O)[C@H](CCCCNC(=O)CN2CCN(CC(=O)O)CCN(CC(=O)O)CCN(CC(=O)O)CC2)NC(=O)[C@H]([C@@H](C)O)NC1=O [UPAR-127] (Butoxycarbonyl-CTK(DOTA)YF[Pro(cis-4-F)][Hyp]I[Nva]C[βAla]-OH; disulfide 1-10) , please.
Result: 1.58 to 10 nM
